Values were extracted from patent US4431815A.

# assayedTarget: TXA2 synthetase (Equus caballus, UniProt A0A9L0T8T9)
# Construct: labelled arachidonic acid substrate, thromboxane B2 measured by TLC
# Sequence (A0A9L0T8T9 2-534): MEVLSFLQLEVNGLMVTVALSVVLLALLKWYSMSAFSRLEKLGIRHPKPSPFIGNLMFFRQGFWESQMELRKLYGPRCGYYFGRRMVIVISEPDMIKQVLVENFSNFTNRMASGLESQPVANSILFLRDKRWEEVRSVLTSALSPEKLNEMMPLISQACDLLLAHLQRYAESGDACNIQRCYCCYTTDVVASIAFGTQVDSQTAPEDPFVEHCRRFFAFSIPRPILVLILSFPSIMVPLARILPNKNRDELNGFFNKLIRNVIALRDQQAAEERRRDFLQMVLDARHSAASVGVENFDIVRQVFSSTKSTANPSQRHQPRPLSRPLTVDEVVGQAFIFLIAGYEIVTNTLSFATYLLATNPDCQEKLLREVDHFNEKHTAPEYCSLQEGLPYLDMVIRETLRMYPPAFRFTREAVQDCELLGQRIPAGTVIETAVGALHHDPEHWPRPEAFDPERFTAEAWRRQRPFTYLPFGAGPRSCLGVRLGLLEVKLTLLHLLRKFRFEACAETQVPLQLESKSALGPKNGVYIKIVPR
# runDescription: Inhibition of thromboxane (TXA2) synthetase in homogenised horse platelets, labelled arachidonic acid, thromboxane B2 measured by TLC
# Type: biochemical
# conditionParameters: Table B; horse platelet homogenate, pH 7.4; read-out: ED50 (concentration of active compound to reduce the enzyme activity by 50%) (converted)
measuredProperty: IC50

Below are worked cases with known answers.
[[record]]
compound = "Clc1ccc(CCCn2ccnc2)c(Cl)c1"
observedresult = "2.35 µM"

[[record]]
compound = "c1ccc(CCn2ccnc2)cc1"
observedresult = "116 µM"

[[record]]
compound = "Fc1ccc(Cn2ccnc2)cc1"
observedresult = "159 µM"


Give measured IC50 for every item shown.
1. CC(C)c1ccc(Cn2ccnc2)cc1
2. Cc1ccc(Cn2ccnc2)cc1

Found:
["0.499 µM", "174 µM"]

====

# assayedTarget: TXA2 synthetase (Equus caballus, UniProt A0A9L0T8T9)
# Construct: labelled arachidonic acid substrate, thromboxane B2 measured by TLC
# runDescription: Inhibition of thromboxane (TXA2) synthetase in homogenised horse platelets, labelled arachidonic acid, thromboxane B2 measured by TLC
# Format: biochemical
# conditionParameters: read-out: ED50 (concentration of active compound to reduce the enzyme activity by 50%); Table B; horse platelet homogenate, pH 7.4
measuredProperty: IC50 (µM)
One number for each entry, in µM.

Lookup: If you can, please state the reported IC50 value of c1ccc(Cn2ccnc2)cc1 [1-benzylimidazole, 1-Benzylimidazole] .
Found: 31.6

====

# System: PGE, PGF and PGD
# runDescription: Selectivity: amount of PGE, PGF and PGD produced (anti-aggregating prostaglandins), horse platelets; further: key: 0: no selectivity; +: low selectivity; ++: medium selectivity; +++: high selectivity; ++++: exceptionally high selectivity
# Format: biochemical
# conditionParameters: Table B; horse platelet homogenate
measuredProperty: SELECTIVITY

[[record]]
compound = "Brc1cccc(Cn2ccnc2)c1 [1-(3-bromobenzyl)imidazole, 1-(3-Bromobenzyl)imidazole]"
measuredproperty = "SELECTIVITY"
observedresult = "+++"

[[record]]
compound = "Cc1cccc(-n2ccnc2)c1C [1-(2,3-dimethylphenyl)imidazole]"
measuredproperty = "SELECTIVITY"
observedresult = "++"

[[record]]
compound = "Cc1ccc(Cn2ccnc2)cc1 [1-(4-methylbenzyl)imidazole, 1-(4-Methylbenzyl)imidazole]"
measuredproperty = "SELECTIVITY"
observedresult = "+"

[[record]]
compound = "CC(C)c1ccc(Cn2ccnc2)cc1 [1-(4-i-propylbenzyl)imidazole, 1-(4-i-Propylbenzyl)imidazole]"
measuredproperty = "SELECTIVITY"
observedresult = 0

[[record]]
compound = "Nc1cccc(Cn2ccnc2)c1 [1-(3-aminobenzyl)imidazole, 1-(3-Aminobenzyl)imidazole]"
measuredproperty = "SELECTIVITY"
observedresult = "++"

[[record]]
compound = "c1ccc(CCCn2ccnc2)cc1 [1-(3-phenylpropyl)imidazole, 1-(3-Phenylpropyl)imidazole]"
measuredproperty = "SELECTIVITY"
observedresult = "+"

[[record]]
compound = "Clc1ccc(CCCn2ccnc2)c(Cl)c1"
measuredproperty = "SELECTIVITY"
observedresult = "++"

[[record]]
compound = "c1ccc(Cn2ccnc2)cc1 [1-benzylimidazole, 1-Benzylimidazole]"
measuredproperty = "SELECTIVITY"
observedresult = "+++"

[[record]]
compound = "c1ccc(CCn2ccnc2)cc1 [1-(2-phenylethyl)imidazole, 1-(2-Phenylethyl)imidazole]"
measuredproperty = "SELECTIVITY"
observedresult = "+"


Please look at the following compound next.
Lookup: If you can, please state the reported SELECTIVITY value of Clc1ccccc1Cn1ccnc1 [1-(2-chlorobenzyl)imidazole] .
Found: ++

====

# assayedTarget: TXA2 synthetase (Equus caballus, UniProt A0A9L0T8T9)
# Construct: labelled arachidonic acid substrate, thromboxane B2 measured by TLC
# runDescription: Inhibition of thromboxane (TXA2) synthetase in homogenised horse platelets, labelled arachidonic acid, thromboxane B2 measured by TLC
# Type: biochemical
# conditionParameters: Table B; horse platelet homogenate, pH 7.4; read-out: ED50 (concentration of active compound to reduce the enzyme activity by 50%) (converted)
Lab note: anything with IC50 below 90 µM is marked label 1; values at 90 µM or higher are marked label 0.

Solved entries (count: 3):
[[record]]
compound = "Clc1ccccc1Cn1ccnc1"
assayedtarget = "TXA2 synthetase (Equus caballus, UniProt A0A9L0T8T9)"
classlabel = "label 1"

[[record]]
compound = "c1ccc(CCCn2ccnc2)cc1"
assayedtarget = "TXA2 synthetase (Equus caballus, UniProt A0A9L0T8T9)"
classlabel = "label 0"

[[record]]
compound = "Brc1cccc(Cn2ccnc2)c1"
assayedtarget = "TXA2 synthetase (Equus caballus, UniProt A0A9L0T8T9)"
classlabel = "label 1"


Lookup: Given "O=[N+]([O-])c1cccc(Cn2ccnc2)c1" , is recorded IC50 strictly lower than 90 µM?
Found: label 0

Lookup: Same thing, different compound: CC(Cn1ccnc1)c1ccccc1 (stereo not shown)
Found: label 1

Lookup: Same thing, different compound: "Brc1ccc(Cn2ccnc2)cc1"
Found: label 1

====

Would you kindly list IC50 for each of these compounds?
# assayedTarget: TXA2 synthetase (Equus caballus, UniProt A0A9L0T8T9)
# Construct: labelled arachidonic acid substrate, thromboxane B2 measured by TLC
# Sequence (A0A9L0T8T9 2-534): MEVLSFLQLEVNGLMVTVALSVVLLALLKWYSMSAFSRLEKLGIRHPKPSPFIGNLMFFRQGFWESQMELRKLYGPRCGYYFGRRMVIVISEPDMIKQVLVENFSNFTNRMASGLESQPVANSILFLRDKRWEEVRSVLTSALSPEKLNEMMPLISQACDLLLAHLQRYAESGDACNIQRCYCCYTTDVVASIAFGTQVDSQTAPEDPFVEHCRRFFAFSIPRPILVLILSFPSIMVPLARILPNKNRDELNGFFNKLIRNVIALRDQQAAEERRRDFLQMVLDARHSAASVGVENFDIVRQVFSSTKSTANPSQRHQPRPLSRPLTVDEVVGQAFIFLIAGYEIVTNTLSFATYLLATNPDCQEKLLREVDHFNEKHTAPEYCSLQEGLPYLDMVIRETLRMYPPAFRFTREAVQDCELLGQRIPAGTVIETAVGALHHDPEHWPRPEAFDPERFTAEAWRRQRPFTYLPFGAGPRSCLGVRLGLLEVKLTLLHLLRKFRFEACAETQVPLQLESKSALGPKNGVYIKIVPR
# runDescription: Inhibition of thromboxane (TXA2) synthetase in homogenised horse platelets, labelled arachidonic acid, thromboxane B2 measured by TLC
# Assay type: biochemical
# conditionParameters: Table B; horse platelet homogenate, pH 7.4; read-out: ED50 (concentration of active compound to reduce the enzyme activity by 50%) (converted)

Below are worked cases with known answers.
[[record]]
compound = "Cc1cccc(-n2ccnc2)c1C [1-(2,3-dimethylphenyl)imidazole]"
measuredproperty = "IC50"
observedresult = "~17.4 µM"

[[record]]
compound = "C(=Cc1ccccc1)Cn1ccnc1 [1-(3-phenylprop-2-enyl)imidazole, 1-(3-Phenylprop-2-enyl)imidazole]"
measuredproperty = "IC50"
observedresult = "92.3 µM"

[[record]]
compound = "Clc1ccc(Cn2ccnc2)c(Cl)c1 [1-(2,4-dichlorobenzyl)imidazole, 1-(2,4-Dichlorobenzyl)imidazole]"
measuredproperty = "IC50"
observedresult = "8.81 to 35.2 µM"


Please look at the following compound next.
Lookup: If you can, please state the reported IC50 value of Nc1cccc(Cn2ccnc2)c1 [1-(3-aminobenzyl)imidazole, 1-(3-Aminobenzyl)imidazole] .
Found: ~57.7 µM
